Please consider the recorded pKd for Peptidyl-prolyl cis-trans isomerase A (Homo sapiens, UniProt P62937) in what follows.
pKd: −log10 of the molar value.

| MOL | CENSORING_SIGN | pKd |
| --- | --- | --- |
| COC(=O)[C@]12CCCN1C(=O)[C@](Cc1ccc3ccccc3c1)(NC(=O)OC(C)(C)C)CC2 | = | 4.77 |
| COC(=O)[C@]12CCCN1C(=O)[C@H](NC(=O)OC(C)(C)C)CC2 | < | 3.70 |
| COC(=O)[C@]12CCCN1C[C@](Cc1ccc3ccccc3c1)(NC(=O)OC(C)(C)C)CC2 | = | 4.11 |
| COC(=O)[C@]12CCCN1C(=O)[C@](Cc1ccccc1)(NC(=O)OC(C)(C)C)CC2 | = | 3.85 |
| COC(=O)[C@]12CCCN1C[C@H](NC(=O)OC(C)(C)C)CC2 | < | 3.70 |
| COC(=O)[C@]12CCCN1C[C@@H](NC(=O)OC(C)(C)C)CC2 | < | 3.70 |
| COC(=O)[C@]12CCCN1C(=O)[C@](Cc1ccc3ccccc3c1)(NC(C)=O)CC2 | = | 5.82 |
